pIC50: −log10 of the molar value.
Target or system Vascular endothelial growth factor receptor 2 (Homo sapiens, UniProt P35968); metric pIC50; compiled from varied reports.
endpoint name: pIC50

CCCS(=O)(=O)Nc1ccc(F)c(C(=O)c2c[nH]c3nccc(OC)c23)c1F : ≥ 5.00
COc1cc(-c2cc3nccc(-c4ccc5[nH]cnc5c4)c3o2)cc(OC)c1OC : 5.52 to 6.52
NC(=S)N/N=C/c1cc(-c2ccc(O)c(F)c2)ccc1O : 4.70 to 6.00
C=CC(=O)Nc1cc2c(Nc3ccc(Br)c(F)c3F)ncnc2cc1OCCNC(=O)CCN(CC)CC : 6.66
COc1cc2nccc(Oc3ccc(NC(=S)Nc4ccccc4)c(Cl)c3)c2cc1C(N)=O : 6.70 to 7.30
COc1ccc(-c2cc3nccc(-c4ccccc4)c3o2)cc1NC(=O)[C@@H]1CCCN1 : 5.52 to 6.52
COc1cnc2[nH]cc(C(=O)c3c(F)ccc(NS(=O)(=O)c4ccccc4F)c3F)c2c1 : ≥ 5.00
COC(c1c(F)ccc(N(Cc2ccccc2)Cc2ccccc2)c1F)c1c[nH]c2ncc(-c3cccnc3)cc12 (centres unmarked) : ≥ 5.00
